experiment: Plasma level of unmodified NAC after oral administration of NAC solutions to rats (GC-MS); format: in vivo, Sprague Dawley rats; conditions: rat, 300 mg/kg NAC (100 μCi/kg 3H-NAC), 0-8 h, * p < 0.005 (Student's t) for NAC-THAM 1:1, read-out: AUC0-8 h, plasma NAC (total unmodified NAC)
Attribute Measured: AUC(0-t) at 8 h

// recorded AUC(0-t) at 8 h for CC(=O)N[C@@H](CS)C(=O)O : 105 µg·h/mL
